# ASSAY SUMMARY: NCI Yeast Anticancer Drug Screen. Data for the mlh1 strain (AID 171);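 note: 0% = growth of vehicle-treated control cultures of the same strain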
# EXPERIMENTAL SETUP: S. cerevisiae mlh1 strain growth inhibition; at 3.7 µM; stronger effect = higher value
# Experimental: Growth inhibition of yeast strains with defined genetic alterations is measured as a screen for potential anti-cancer activity. Selected strains with alterations in DNA damage repair or cell cycle control were exposed to compounds and growth inhibition was measured relative to vehicle treated controls. The strain used in this assay is mlh1
This is part of a sample that, as a whole, favours compounds with a hit. Of some 79,000 tested, about 15% had one in any assay. Calls of active or inactive are those of the source. Cut-off read from the data, not from the text of the source: active = growth inhibition above about 70%; inactive = the rest.
Each entry below carries its recorded growth inhibition.

Would you please look over these solved cases?
CC(C)N(CCCNc1c2ccccc2nc2cccc([N+](=O)[O-])c12)C(C)C = 14% (inactive)
Cc1cccc2c1C1c3c(C)cccc3C(CC(=O)O)CC1CC2 (stereo not drawn) = 71% (active)
CC(C)=CCC/C(C)=C/CN1C(=O)C=CC1=O = 15% (inactive)
OC1(C#CI)CCCCC1 = 17% (inactive)

*Q* Entry under review: NC(N)=NS(=O)(=O)c1ccc(Nc2c3ccccc3nc3c(C(=O)NC(CO)(CO)CO)cccc23)cc1 . Reported growth inhibition?
*A* 0% (inactive)

*Q* Which growth inhibition reading was recorded for the molecule COC(=O)C1CCCCC1C(=O)Nc1ccccc1 (stereo not drawn) ?
*A* 0% (inactive)
